protocol.text: Fluorescence of control wells containing enzyme substrate in LB broth without spores
Format: physicochemical
particulars: pH 9 LB broth, substrate 0.3 mg/mL, 60° C., +10 minutes
assay.metric: mean fluorescence values detected for the control wells (RFU)
Provide the reading as a plain figure in RFU.

[Q] // query mean fluorescence values detected for the control wells value for entry Cc1cc(=O)oc2cc(O[C@H]3O[C@H](CO)[C@@H](O)[C@H](O)[C@H]3O)cc(F)c12 [Example 2]
[A] 421

[Q] Recorded mean fluorescence values detected for the control wells for Cc1cc(=O)oc2cc(O[C@H]3O[C@H](CO)[C@@H](O)[C@H](O)[C@H]3O)c(F)cc12 [Example 1] , please?
[A] 738

[Q] Give its mean fluorescence values detected for the control wells value. Item: Cc1cc(=O)oc2cc(O[C@H]3O[C@H](CO)[C@@H](O)[C@H](O)[C@H]3O)ccc12 [MUG]
[A] 406
